molecular target: D(2) dopamine receptor (Homo sapiens, UniProt P14416); assay: In vitro displacement of [3H]spiperone from the recombinant human dopamine receptor D2 short form expressed in CHO cells; type: cell-based
Sequence (P14416 whole entry): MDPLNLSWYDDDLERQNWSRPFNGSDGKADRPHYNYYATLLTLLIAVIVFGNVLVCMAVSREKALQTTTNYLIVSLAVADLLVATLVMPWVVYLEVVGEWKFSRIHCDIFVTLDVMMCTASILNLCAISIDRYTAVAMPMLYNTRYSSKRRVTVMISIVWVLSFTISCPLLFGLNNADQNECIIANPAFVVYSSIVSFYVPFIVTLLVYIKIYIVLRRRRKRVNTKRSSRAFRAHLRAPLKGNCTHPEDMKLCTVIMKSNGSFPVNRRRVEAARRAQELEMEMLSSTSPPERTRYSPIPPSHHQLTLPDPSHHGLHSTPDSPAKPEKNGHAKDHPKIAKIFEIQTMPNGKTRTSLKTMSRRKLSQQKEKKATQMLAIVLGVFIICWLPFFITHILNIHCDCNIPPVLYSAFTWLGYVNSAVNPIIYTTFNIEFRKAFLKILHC
pKi: −log10 of the molar value.
Record Y whenever pKi is at 6 or higher; record N when lower.

## Task Record `COc1ccc(Br)cc1-c1nc(CN(C)C[C@@H]2CCN(Cc3ccccc3)C2)co1` ; criterion: pKi no lower than 6. Met?
## Result N

## Task Record `COc1ccc(Br)cc1-c1nc(CN2CCN(Cc3ccccc3)CC2)cs1` ; criterion: pKi no lower than 6. Met?
## Result Y

## Task Record `COc1ccc(Br)cc1-c1nc(CNC2CCN(Cc3ccccc3)CC2)cs1` ; criterion: pKi no lower than 6. Met?
## Result Y

## Task Record c1ccc(CN2CC[C@@H](CNCc3csc(-c4ccccc4)n3)C2)cc1 (stereo in doubt) ; criterion: pKi no lower than 6. Met?
## Result N

## Task Record `Oc1ccc(Br)cc1-c1nc(CN2CCN(c3ccccc3)CC2)co1` ; criterion: pKi no lower than 6. Met?
## Result N

## Task Record `c1ccc(CN2CCN(Cc3csc(-c4ccccc4)n3)CC2)cc1` ; criterion: pKi no lower than 6. Met?
## Result N

## Task Record `COc1ccc(Br)cc1-c1ncc(CNC[C@@H]2CCN(Cc3ccccc3)C2)[nH]1` ; criterion: pKi no lower than 6. Met?
## Result N

## Task Record `COc1ccc(Br)cc1-c1nc(CN2CCN(c3ccccc3)CC2)cs1` ; criterion: pKi no lower than 6. Met?
## Result Y

## Task Record `c1ccc(CN2CCN(Cc3coc(-c4ccccc4)n3)CC2)cc1` ; criterion: pKi no lower than 6. Met?
## Result N

## Task Record `COc1ccc(Br)cc1-c1nc(CN2CCN(c3ccccc3)CC2)co1` ; criterion: pKi no lower than 6. Met?
## Result Y

## Task Record `c1ccc(-c2nc(CN3CCN(c4ccccc4)CC3)co2)cc1` ; criterion: pKi no lower than 6. Met?
## Result N

## Task Record c1ccc(CN2CC[C@@H](CNCc3csc(-c4ccccc4)n3)C2)cc1 (stereo in doubt; 4q) ; criterion: pKi no lower than 6. Met?
## Result N

## Task Record `c1ccc(CN2CCC(NCc3csc(-c4ccccc4)n3)CC2)cc1` ; criterion: pKi no lower than 6. Met?
## Result N

## Task Record `c1ccc(CN2CCC(NCc3coc(-c4ccccc4)n3)CC2)cc1` ; criterion: pKi no lower than 6. Met?
## Result N

## Task Record COc1ccc(Br)cc1-c1nc(CNCCC2CCN(Cc3ccccc3)C2)co1 (stereo unspecified) ; criterion: pKi no lower than 6. Met?
## Result Y

## Task Record `COc1c(-c2nc(CNC[C@@H]3CCN(Cc4ccccc4)C3)co2)cc(Br)c2ccccc12` ; criterion: pKi no lower than 6. Met?
## Result N

## Task Record `COc1ccc(Br)cc1-c1nc(CNC2CCN(Cc3ccccc3)CC2)co1` ; criterion: pKi no lower than 6. Met?
## Result Y

###

measurementKind: pKi
Keep it numeric: pKi is minus log10 of the concentration in mol/L.

// pKi (D(3) dopamine receptor (Homo sapiens, UniProt P35462)) for `COc1c(-c2nc(CNC[C@@H]3CCN(Cc4ccccc4)C3)co2)cc(Br)c2ccccc12` = 5.23

// pKi (D(3) dopamine receptor (Homo sapiens, UniProt P35462)) for `COc1ccc(Br)cc1-c1nc(CNC2CCN(Cc3ccccc3)CC2)cs1` = 6.69

// pKi (D(3) dopamine receptor (Homo sapiens, UniProt P35462)) for `COc1ccc(Br)cc1-c1nc(CN2CCN(c3ccccc3)CC2)co1` = 6.18

// pKi (D(3) dopamine receptor (Homo sapiens, UniProt P35462)) for `COc1ccc(Br)cc1-c1nc(CN2CCN(Cc3ccccc3)CC2)co1` = 5.98

// pKi (D(3) dopamine receptor (Homo sapiens, UniProt P35462)) for `COc1ccc(Br)cc1-c1nc(CNC2CCN(Cc3ccccc3)CC2)co1` = 6.24

// pKi (D(3) dopamine receptor (Homo sapiens, UniProt P35462)) for `COc1ccc(Br)cc1-c1ncc(CNC[C@@H]2CCN(Cc3ccccc3)C2)[nH]1` = 5.89

// pKi (D(3) dopamine receptor (Homo sapiens, UniProt P35462)) for `c1ccc(CN2CCN(Cc3csc(-c4ccccc4)n3)CC2)cc1` = 5.28

// pKi (D(3) dopamine receptor (Homo sapiens, UniProt P35462)) for `c1ccc(CN2CCN(Cc3coc(-c4ccccc4)n3)CC2)cc1` = 5.08

// pKi (D(3) dopamine receptor (Homo sapiens, UniProt P35462)) for `COc1ccc(Br)cc1-c1nc(CNCC[C@@H]2CCN(Cc3ccccc3)C2)co1` = 6.92

// pKi (D(3) dopamine receptor (Homo sapiens, UniProt P35462)) for `COc1ccc(Br)cc1-c1nc(CN2CCN(c3ccccc3)CC2)cs1` = 5.92
